test: Radiolytic stability of the radiopeptides in saline with L-ascorbic acid; conditions: 4 h; 50 MBq/nmol in saline, 150 MBq/300 µL, L-ascorbic acid (3 mg, 20 µL) and NaOAc (0.5 M, 30 µL); HPLC, product peak relative to t=0 (100%); average ± SD, n=3
Here, each record is paired with measured radiolytic stability, % intact radiopeptide data.
I only need the number, in %, no unit after it.

Sample answers from the record:
molecule="CC(C)C[C@H](NC(=O)[C@H](Cc1ccc(O)cc1)NC(=O)[C@@H](CCCNC(=N)N)NC(=O)[C@@H](CO)NC(=O)[C@H](Cc1ccccc1)NC(=O)[C@H](CC1CCCCC1)NC(=O)[C@H](CC(=O)O)NC(=O)CN1CCN(CC(=O)O)CCN(CC(=O)O)CCN(CC(=O)O)CC1)C(=O)N[C@@H](Cc1c[nH]c2ccccc12)C(=O)N[C@@H](CO)C(N)=O [[^177Lu]Lu-DOTA-AE105, metal not drawn, reference compound]" units=% resultnumber=98
molecule="CC(C)C[C@H](NC(=O)[C@H](Cc1ccc(O)cc1)NC(=O)[C@@H](CCCNC(=N)N)NC(=O)[C@@H](CO)NC(=O)[C@H](Cc1ccccc1)NC(=O)[C@H](CC1CCCCC1)NC(=O)[C@H](CC(=O)O)NC(=O)[C@H](CCCCNC(=O)CCCc1ccc(I)cc1)NC(=O)CN1CCN(CC(=O)O)CCN(CC(=O)O)CCN(CC(=O)O)CC1)C(=O)N[C@@H](Cc1c[nH]c2ccccc12)C(=O)N[C@@H](CO)C(N)=O [[^177Lu]Lu-uPAR-01, metal not drawn]" units=% resultnumber=100
molecule="CC(C)C[C@H](NC(=O)[C@H](Cc1ccc(O)cc1)NC(=O)[C@@H](CCCNC(=N)N)NC(=O)[C@@H](CO)NC(=O)[C@H](Cc1ccccc1)NC(=O)[C@H](CC1CCCCC1)NC(=O)[C@H](CC(=O)O)NC(=O)CCOCCOCCOCCOCCNC(=O)[C@H](CCCCNC(=O)CCCc1ccc(I)cc1)NC(=O)CN1CCN(CC(=O)O)CCN(CC(=O)O)CCN(CC(=O)O)CC1)C(=O)N[C@@H](Cc1c[nH]c2ccccc12)C(=O)N[C@@H](CO)C(N)=O [[^177Lu]Lu-uPAR-05, metal not drawn]" units=% resultnumber=97

Query (molecule): CC(C)C[C@H](NC(=O)[C@H](Cc1ccc(O)cc1)NC(=O)[C@@H](CCCNC(=N)N)NC(=O)[C@@H](CO)NC(=O)[C@H](Cc1ccccc1)NC(=O)[C@H](CC1CCCCC1)NC(=O)[C@H](CC(=O)O)NC(=O)[C@H](CCCCNC(=O)CCCc1ccc(I)cc1)NC(=O)[C@@H](N)CCCCNC(=O)CN1CCN(CC(=O)O)CCN(CC(=O)O)CCN(CC(=O)O)CC1)C(=O)N[C@@H](Cc1c[nH]c2ccccc12)C(=O)N[C@@H](CO)C(N)=O [[^177Lu]Lu-uPAR-04, metal not drawn] ; field requested: radiolytic stability, % intact radiopeptide
97

* * *

Here, each record is paired with measured remaining at 1 h, 10 MBq/200 µL data.
assay: Stability of the radiopeptides in human blood plasma; conditions: human, blood plasma

compound="CC(C)C[C@H](NC(=O)[C@H](Cc1ccc(O)cc1)NC(=O)[C@@H](CCCNC(=N)N)NC(=O)[C@@H](CO)NC(=O)[C@H](Cc1ccccc1)NC(=O)[C@H](CC1CCCCC1)NC(=O)[C@H](CC(=O)O)NC(=O)[C@H](CCCCNC(=O)CCCc1ccc(I)cc1)NC(=O)[C@@H](N)CCCCNC(=O)CN1CCN(CC(=O)O)CCN(CC(=O)O)CCN(CC(=O)O)CC1)C(=O)N[C@@H](Cc1c[nH]c2ccccc12)C(=O)N[C@@H](CO)C(N)=O [[^177Lu]Lu-uPAR-04, metal not drawn]" valuetype="remaining at 1 h, 10 MBq/200 µL" result=101%
compound="CC(C)C[C@H](NC(=O)[C@H](Cc1ccc(O)cc1)NC(=O)[C@@H](CCCNC(=N)N)NC(=O)[C@@H](CO)NC(=O)[C@H](Cc1ccccc1)NC(=O)[C@H](CC1CCCCC1)NC(=O)[C@H](CC(=O)O)NC(=O)CCOCCOCCOCCOCCNC(=O)[C@H](CCCCNC(=O)CCCc1ccc(I)cc1)NC(=O)CN1CCN(CC(=O)O)CCN(CC(=O)O)CCN(CC(=O)O)CC1)C(=O)N[C@@H](Cc1c[nH]c2ccccc12)C(=O)N[C@@H](CO)C(N)=O [[^177Lu]Lu-uPAR-05, metal not drawn]" valuetype="remaining at 1 h, 10 MBq/200 µL" result=99%
compound="CC(C)C[C@H](NC(=O)[C@H](Cc1ccc(O)cc1)NC(=O)[C@@H](CCCNC(=N)N)NC(=O)[C@@H](CO)NC(=O)[C@H](Cc1ccccc1)NC(=O)[C@H](CC1CCCCC1)NC(=O)[C@H](CC(=O)O)NC(=O)CN1CCN(CC(=O)O)CCN(CC(=O)O)CCN(CC(=O)O)CC1)C(=O)N[C@@H](Cc1c[nH]c2ccccc12)C(=O)N[C@@H](CO)C(N)=O [[^177Lu]Lu-DOTA-AE105, metal not drawn, reference compound]" valuetype="remaining at 1 h, 10 MBq/200 µL" result=71%

Moving on to the next compound.
Query (compound): CC(C)C[C@H](NC(=O)[C@H](Cc1ccc(O)cc1)NC(=O)[C@@H](CCCNC(=N)N)NC(=O)[C@@H](CO)NC(=O)[C@H](Cc1ccccc1)NC(=O)[C@H](CC1CCCCC1)NC(=O)[C@H](CC(=O)O)NC(=O)[C@H](CCCCNC(=O)CCCc1ccc(I)cc1)NC(=O)CN1CCN(CC(=O)O)CCN(CC(=O)O)CCN(CC(=O)O)CC1)C(=O)N[C@@H](Cc1c[nH]c2ccccc12)C(=O)N[C@@H](CO)C(N)=O [[^177Lu]Lu-uPAR-01, metal not drawn] ; field requested: remaining at 1 h, 10 MBq/200 µL
100%
